- target-entity: Histone deacetylase 2 (Homo sapiens, UniProt Q92769)
- Sequence (Q92769 whole entry): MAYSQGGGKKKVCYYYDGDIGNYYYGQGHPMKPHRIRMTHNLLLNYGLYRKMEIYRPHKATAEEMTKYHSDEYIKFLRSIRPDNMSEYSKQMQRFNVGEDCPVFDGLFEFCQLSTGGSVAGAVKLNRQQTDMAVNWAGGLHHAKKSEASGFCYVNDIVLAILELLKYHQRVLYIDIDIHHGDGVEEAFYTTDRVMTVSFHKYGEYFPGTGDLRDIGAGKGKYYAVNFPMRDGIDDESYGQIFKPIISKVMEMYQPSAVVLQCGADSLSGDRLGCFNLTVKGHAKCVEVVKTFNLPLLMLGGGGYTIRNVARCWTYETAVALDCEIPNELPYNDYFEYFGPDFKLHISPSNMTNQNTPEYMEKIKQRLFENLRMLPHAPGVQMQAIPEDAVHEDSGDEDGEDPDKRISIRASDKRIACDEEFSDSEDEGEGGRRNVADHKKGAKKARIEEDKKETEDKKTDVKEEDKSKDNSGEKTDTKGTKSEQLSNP
- assay-procedure: Inhibition of full length recombinant human C-terminal FLAG/His-tagged HDAC2 expressed in baculovirus expression system using Boc-Lys(acetyl)-AMC as substrate preincubated for 1 hr followed by substrate addition measured after 2 hrs by fluorescence assay
measured-property: pIC50
Entry type: numeric. Quantity: pIC50, the -log10 of concentration in molar units.

{"columns": ["molecule", "pIC50"],
 "data": [
  ["CCCNNC(=O)/C=C/c1ccc(OC[C@H](Cc2c[nH]c3ccccc23)NC(=O)c2ccc(OC)cc2)cc1", 6.55],
  ["CCCNNC(=O)CCCCCNC(=O)[C@H](Cc1c[nH]c2ccccc12)NC(=O)c1ccc(OC)cc1", 6.68]
]}

# compound `CCCNNC(=O)c1ccc(CNC(=O)[C@H](Cc2c[nH]c3ccccc23)NC(=O)c2ccc(OC)cc2)cc1` ; its pIC50 = 6.54

###

- target-entity: Histone deacetylase 3/Nuclear receptor corepressor 2 (HDAC3/NCoR2) (Homo sapiens, UniProt O15379)
- Sequence (O15379 whole entry): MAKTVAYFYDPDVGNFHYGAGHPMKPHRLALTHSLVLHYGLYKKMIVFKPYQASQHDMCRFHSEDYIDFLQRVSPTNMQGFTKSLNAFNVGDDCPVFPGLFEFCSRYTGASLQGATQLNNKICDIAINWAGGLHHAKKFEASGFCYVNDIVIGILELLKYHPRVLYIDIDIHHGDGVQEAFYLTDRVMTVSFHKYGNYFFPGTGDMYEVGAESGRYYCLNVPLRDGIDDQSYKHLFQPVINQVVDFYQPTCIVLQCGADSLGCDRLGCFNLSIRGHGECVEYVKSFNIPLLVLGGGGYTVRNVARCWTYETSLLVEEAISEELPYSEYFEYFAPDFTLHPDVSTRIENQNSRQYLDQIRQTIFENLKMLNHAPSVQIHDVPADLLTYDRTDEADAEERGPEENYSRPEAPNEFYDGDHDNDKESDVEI
- Sequence (Q9Y618 whole entry, further chain): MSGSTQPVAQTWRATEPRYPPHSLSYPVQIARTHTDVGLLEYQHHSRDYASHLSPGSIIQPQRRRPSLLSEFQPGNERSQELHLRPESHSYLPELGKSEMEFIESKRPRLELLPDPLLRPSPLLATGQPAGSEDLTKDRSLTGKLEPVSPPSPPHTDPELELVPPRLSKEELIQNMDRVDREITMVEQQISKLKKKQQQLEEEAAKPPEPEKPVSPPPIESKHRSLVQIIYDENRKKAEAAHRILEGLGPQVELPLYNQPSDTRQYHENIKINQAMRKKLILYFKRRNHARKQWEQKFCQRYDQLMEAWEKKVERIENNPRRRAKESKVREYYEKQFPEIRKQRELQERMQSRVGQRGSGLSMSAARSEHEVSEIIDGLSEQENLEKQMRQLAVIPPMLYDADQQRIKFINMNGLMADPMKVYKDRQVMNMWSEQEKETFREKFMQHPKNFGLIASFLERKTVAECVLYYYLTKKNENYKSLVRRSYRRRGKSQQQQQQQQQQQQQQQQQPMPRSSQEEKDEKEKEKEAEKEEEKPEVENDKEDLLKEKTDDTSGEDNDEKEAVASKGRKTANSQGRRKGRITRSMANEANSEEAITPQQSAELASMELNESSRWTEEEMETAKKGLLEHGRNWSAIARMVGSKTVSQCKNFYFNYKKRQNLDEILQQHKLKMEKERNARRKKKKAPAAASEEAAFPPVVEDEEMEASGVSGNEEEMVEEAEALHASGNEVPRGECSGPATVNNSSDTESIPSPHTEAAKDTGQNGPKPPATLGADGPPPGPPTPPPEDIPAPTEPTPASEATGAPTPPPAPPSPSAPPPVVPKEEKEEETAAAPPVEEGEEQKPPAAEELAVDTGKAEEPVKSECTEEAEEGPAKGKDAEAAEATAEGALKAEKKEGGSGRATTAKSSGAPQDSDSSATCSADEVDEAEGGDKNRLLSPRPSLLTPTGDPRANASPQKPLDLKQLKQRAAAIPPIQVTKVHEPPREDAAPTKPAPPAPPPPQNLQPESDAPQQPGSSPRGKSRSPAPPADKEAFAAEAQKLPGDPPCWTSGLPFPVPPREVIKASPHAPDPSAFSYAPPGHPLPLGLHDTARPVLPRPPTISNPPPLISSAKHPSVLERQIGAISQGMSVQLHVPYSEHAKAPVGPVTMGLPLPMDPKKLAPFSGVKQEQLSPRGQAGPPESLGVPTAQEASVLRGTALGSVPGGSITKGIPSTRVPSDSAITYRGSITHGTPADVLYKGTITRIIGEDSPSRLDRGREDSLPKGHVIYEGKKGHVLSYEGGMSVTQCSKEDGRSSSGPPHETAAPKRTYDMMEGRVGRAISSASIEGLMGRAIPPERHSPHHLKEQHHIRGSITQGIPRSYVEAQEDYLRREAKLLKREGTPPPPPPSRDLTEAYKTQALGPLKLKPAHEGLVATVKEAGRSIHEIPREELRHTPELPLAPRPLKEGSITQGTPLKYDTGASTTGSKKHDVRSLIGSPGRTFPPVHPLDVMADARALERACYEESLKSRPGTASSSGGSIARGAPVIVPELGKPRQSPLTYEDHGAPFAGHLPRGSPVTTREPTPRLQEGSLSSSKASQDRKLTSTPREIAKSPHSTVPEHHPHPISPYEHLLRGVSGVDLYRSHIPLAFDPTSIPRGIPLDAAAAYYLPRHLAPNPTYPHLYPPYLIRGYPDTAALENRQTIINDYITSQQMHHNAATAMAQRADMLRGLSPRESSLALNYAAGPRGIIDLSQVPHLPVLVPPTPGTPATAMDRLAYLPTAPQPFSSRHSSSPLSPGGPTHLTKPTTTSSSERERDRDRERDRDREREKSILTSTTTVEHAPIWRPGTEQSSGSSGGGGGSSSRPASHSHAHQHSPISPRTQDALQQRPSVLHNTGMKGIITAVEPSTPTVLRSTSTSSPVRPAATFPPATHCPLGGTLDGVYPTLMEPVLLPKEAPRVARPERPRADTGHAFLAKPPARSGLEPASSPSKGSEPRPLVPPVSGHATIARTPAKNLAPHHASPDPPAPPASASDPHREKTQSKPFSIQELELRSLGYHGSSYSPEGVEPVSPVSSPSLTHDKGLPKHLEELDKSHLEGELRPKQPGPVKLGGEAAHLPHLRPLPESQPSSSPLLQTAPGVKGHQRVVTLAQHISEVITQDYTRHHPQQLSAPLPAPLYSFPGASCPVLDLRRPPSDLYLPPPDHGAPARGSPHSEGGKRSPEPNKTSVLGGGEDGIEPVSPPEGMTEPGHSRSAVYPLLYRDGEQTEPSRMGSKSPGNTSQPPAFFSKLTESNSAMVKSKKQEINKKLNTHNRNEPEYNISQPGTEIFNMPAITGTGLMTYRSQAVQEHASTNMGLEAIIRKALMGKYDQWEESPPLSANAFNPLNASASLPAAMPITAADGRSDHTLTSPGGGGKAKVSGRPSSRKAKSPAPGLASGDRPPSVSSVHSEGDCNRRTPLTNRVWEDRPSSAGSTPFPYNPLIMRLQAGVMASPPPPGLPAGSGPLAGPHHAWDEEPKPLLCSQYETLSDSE
- assay-procedure: Inhibition of full length recombinant human C-terminal His-tagged HDAC3/N-terminal GST-tagged NCOR2 co-expressed in baculovirus expression system using Boc-Lys(acetyl)-AMC as substrate preincubated for 60 mins followed by substrate addition measured after 2 hrs by fluorescence assay
measured-property: IC50
Please report the result as a number followed by the unit.

# compound `COc1ccc(C(=O)N[C@@H](Cc2c[nH]c3ccccc23)C(=O)NCc2ccc(C(=O)Nc3ccccc3N)cc2)cc1` ; its IC50 = 0.184 µM

###

- target-entity: Protein deacetylase HDAC6 (Homo sapiens, UniProt Q9UBN7)
- Sequence (Q9UBN7 whole entry): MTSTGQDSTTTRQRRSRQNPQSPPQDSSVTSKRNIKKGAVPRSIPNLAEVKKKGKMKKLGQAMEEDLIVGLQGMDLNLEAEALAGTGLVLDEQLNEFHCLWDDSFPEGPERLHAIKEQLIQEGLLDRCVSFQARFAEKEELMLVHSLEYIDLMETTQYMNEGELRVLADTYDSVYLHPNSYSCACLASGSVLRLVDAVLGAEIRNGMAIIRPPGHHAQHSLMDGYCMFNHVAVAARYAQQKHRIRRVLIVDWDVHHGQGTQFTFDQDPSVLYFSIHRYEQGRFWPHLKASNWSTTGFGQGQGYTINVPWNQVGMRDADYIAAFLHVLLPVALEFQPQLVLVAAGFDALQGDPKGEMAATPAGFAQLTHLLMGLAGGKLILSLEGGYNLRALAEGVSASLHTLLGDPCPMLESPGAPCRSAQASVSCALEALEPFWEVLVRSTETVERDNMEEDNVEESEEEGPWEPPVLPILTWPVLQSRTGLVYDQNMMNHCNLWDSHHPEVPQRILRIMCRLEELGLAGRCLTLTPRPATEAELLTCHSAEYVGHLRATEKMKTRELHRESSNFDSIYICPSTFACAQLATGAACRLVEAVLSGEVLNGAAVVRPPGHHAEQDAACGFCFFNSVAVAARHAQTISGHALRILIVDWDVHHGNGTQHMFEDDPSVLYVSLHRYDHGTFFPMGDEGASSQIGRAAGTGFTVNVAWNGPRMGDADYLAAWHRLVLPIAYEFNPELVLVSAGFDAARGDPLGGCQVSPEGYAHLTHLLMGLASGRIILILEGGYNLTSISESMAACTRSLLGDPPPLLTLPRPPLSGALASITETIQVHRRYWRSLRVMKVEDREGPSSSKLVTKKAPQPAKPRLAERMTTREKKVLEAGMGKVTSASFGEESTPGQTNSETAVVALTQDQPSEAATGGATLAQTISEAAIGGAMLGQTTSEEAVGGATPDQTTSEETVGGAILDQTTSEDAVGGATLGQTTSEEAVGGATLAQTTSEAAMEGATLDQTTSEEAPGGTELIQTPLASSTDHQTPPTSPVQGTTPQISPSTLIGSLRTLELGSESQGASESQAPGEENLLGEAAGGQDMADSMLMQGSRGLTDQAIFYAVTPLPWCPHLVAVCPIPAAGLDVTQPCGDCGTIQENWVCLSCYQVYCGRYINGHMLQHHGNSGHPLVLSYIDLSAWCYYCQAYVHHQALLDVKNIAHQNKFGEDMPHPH
measured-property: IC50

{"columns": ["molecule", "IC50"],
 "data": [
  ["CCCNNC(=O)c1ccc(CNC(=O)[C@H](Cc2c[nH]c3ccccc23)NC(=O)c2ccc(OC)cc2)cc1", "> 100 µM"],
  ["CCCNNC(=O)CCCCCCCNC(=O)[C@H](Cc1c[nH]c2ccccc12)NC(=O)c1ccc(OC)cc1", "> 100 µM"]
]}

# molecule `COc1ccc(C(=O)N[C@@H](Cc2c[nH]c3ccccc23)C(=O)NCc2ccc(C(=O)Nc3ccccc3N)cc2)cc1` ; its IC50 = > 100 µM

# molecule `CCNNC(=O)c1ccc(CNC(=O)[C@H](Cc2c[nH]c3ccccc23)NC(=O)c2ccc(OC)cc2)cc1` ; its IC50 = 0.393 µM
